Target: T1, human IL-2Rγ endogenously expressed on NK-92 and Jurkat cells (human, UniProt P31785 23-369)
T1 construct: whole, on cells; on cells it stands with the other receptor subunits of the cell line; also called IL-2Rg; CD132
T1 sequence (looked up): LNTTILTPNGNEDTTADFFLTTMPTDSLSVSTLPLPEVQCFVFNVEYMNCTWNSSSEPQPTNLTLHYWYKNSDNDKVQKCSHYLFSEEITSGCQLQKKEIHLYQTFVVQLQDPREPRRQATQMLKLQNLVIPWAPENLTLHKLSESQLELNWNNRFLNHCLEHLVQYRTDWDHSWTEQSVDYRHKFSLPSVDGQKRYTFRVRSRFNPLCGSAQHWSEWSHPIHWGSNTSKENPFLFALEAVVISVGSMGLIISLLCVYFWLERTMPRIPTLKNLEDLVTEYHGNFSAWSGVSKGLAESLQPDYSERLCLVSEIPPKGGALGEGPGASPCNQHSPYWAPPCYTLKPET
Experiment: flow cytometry, 10 ug/ml antibody, Jurkat cells (endogenous human IL-2Rg)
Give Raw MFI for every item shown.
The figure you give is taken to be in MFI; do not add the unit.

input: Look up Raw MFI of H4H12871P (antibody, human IgG4 S228P, kappa, V domains shown, fully human anti-IL2Rg antibody, human IgG4; also called REGN9434) VH: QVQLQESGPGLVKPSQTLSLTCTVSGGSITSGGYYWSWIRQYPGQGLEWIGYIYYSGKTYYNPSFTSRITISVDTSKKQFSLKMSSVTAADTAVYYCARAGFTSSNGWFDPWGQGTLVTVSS VL: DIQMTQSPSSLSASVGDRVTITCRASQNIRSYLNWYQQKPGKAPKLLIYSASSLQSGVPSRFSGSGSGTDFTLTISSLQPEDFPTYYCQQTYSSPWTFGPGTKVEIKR and report it.
output: 1620

input: Fill in Raw MFI for record H4H12900P (antibody, human IgG4 S228P, kappa, V domains shown, fully human anti-IL2Rg antibody, human IgG4) VH: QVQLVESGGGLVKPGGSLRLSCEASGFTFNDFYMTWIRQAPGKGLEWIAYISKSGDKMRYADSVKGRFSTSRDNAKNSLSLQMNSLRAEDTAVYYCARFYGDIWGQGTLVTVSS VL: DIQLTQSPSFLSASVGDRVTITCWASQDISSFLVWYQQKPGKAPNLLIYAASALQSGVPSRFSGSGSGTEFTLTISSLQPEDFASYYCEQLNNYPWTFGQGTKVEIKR
output: 110
